# SYSTEM_NAME: T1, hu-CD200R1-iso4-Ref ECD (human)
# T1 chain: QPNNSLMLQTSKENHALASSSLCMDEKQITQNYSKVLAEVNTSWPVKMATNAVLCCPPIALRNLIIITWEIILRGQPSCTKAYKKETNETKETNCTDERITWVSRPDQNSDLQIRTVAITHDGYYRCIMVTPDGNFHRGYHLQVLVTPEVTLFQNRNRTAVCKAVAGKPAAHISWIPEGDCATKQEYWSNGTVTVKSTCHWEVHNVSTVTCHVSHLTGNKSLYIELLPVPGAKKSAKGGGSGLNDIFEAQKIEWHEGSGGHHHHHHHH
# METHOD_NOTES: SPR Biacore 8K 37C; antibody on Protein A chip, CD200R1 analyte;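 further: sensorgrams corrected by subtracting reference and buffer signals, then analysed with Biacore 8K Evaluation Software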
MEASURED_PARAMETER: koff (s⁻¹)
Numbers only, in s⁻¹.

Guide cases for koff, answers given:
# BINDER, RESULT_UNIT, koff
rows = [
    ("h10F6.V2 (antibody, IgG1, V domains shown, IgG1 variant of h10F6) VH: EVQLQESGPGLVKPSETLSLTCTVSGFSLTNYWVSWVRQPPGKGLEWLGTMWAGGGTNYNSVFKSRLTISKDNSKNQVSLKLSSVTAADTAVYYCARERPLTGPMDYWGQGTLVTVSS VL: DIVLTQSPDSLAVSLGERATINCRASESVDYSGNSFMHWFQQKPGQPPKLLIYRASNLESGIPDRFSGSGSRTDFTLTISSLQAEDVAVYYCHQSNEDPPTFGGGTKVEIKR", "s⁻¹", 0.00367),
    ("h10F6.V3 (antibody, IgG1, V domains shown, IgG1 variant of h10F6) VH: EVQLQESGPGLVKPSETLSLTCTVSGFSLTNYRVSWVRQPPGKGLEWLGVMYAGGGTNYNSVFKSRLTISKDNSKNQVSLKLSSVTAADTAVYYCARERPLTGVMDNWGQGTLVTVSS VL: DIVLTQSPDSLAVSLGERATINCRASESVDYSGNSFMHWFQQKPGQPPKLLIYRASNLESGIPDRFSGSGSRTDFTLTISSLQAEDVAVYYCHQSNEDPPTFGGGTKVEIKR", "s⁻¹", 0.00153),
]

For every record below, what is its koff?
1. h10F6.V4 (antibody, IgG1, V domains shown, IgG1 variant of h10F6) VH: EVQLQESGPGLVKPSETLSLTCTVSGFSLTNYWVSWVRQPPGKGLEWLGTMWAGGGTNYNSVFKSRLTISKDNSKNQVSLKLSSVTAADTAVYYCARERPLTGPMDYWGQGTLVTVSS VL: DIVLTQSPDSLAVSLGERATINCRASESVDYSGNSFMHWFQQKPGQPPKLLIYRASNLESGIPDRFSGSGSRTDFTLTISSLQAEDVAVYYCHQSNWDPPTFGGGTKVEIKR
2. h10F6.V1 (antibody, IgG1, V domains shown, differs by 3 residues in the heavy chain CDRs and 1 in the light chain CDRs; also called surrogate antibody) VH: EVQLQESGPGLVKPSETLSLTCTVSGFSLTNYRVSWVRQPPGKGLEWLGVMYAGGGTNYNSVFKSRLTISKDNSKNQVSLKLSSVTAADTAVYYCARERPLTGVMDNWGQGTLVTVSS VL: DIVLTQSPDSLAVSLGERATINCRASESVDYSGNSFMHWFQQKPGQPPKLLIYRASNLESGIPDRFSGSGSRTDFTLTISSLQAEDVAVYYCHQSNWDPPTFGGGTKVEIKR

Response:
[0.00336, 0.000964]

These measurements were taken from patent US20260022171A1.
